- Tested on: UACC-62 melanoma
- assayComment: NCI-60 one-dose screen, 48 h
- conditionSet: 10 µM unless noted
- Method: Growth inhibition of the UACC-62 human tumor cell line is measured as a screen for anti-cancer activity. Cells are grown in 96 well plates and exposed to the test compound for 48 hours. Compounds are tested at a single concentration, which is 10^-5 M for most compounds. The reported endpoint is percent growth (GI% or GIPRCNT), where numbers from 0 - 100% represent growth inhibition, and numbers from -100% - 0 represent cell death. For example, a value of 40 represents 60% growth inhibition. […]
Compounds without any hit were thinned out: in the full panel of roughly 83,000, 20% have a hit. The source made the active and inactive calls. How the source made its calls: active means growth percent below 10; inactive means the rest.
Lab note: assign the record to one of active, inactive

> print(dat)
                             smilesnotation  answerlabel
1          Cc1nc2c(c(N3CCCc4ccccc43)n1)CCC2     inactive
2  O=C(Nc1ccccc1-c1nc2ccccc2c(=O)[nH]1)c1cc2ccccc2[nH]1     inactive
3   COc1nc2c(c(=O)n1C)CN(c1ccccc1)C(=O)CN2C     inactive

Q. Please let me know the test result on file for Cn1cc(-c2csc(-c3cccc(F)c3)n2)c2cccnc21 .
A. active

Q. Per the assay record, what outcome was assigned to CCN1CCN(c2cc(C)nc(NCc3cc(Nc4ccnc5cc(Cl)ccc45)ccc3F)n2)CC1 ?
A. inactive

Q. Which outcome did this test record for the compound Nc1cc2c3c(cccc3c1)C(=O)N(CCN1CCCC1)C2=O ?
A. inactive
